meta.source: ChEMBL document CHEMBL1201862

system: SF-539; assay: NCI tumour cell line growth inhibition, 48 h
Activity calls are given as the source filed them. No stated cut-off is given here; in the data, active = GI50 up to about 1.1 µM and inactive = higher.
Classes to choose from: 1 = active, -1 = inactive

Below, 3 compounds whose answers are already recorded.
{"columns": ["compound", "tested.on", "assigned.class"],
 "data": [
  ["COc1cc(/C=C2/C(=O)N(C(=O)c3ccccc3O)N=C2C)cc(OC)c1OC", "SF-539", 1],
  ["CCN(CC)C(=S)SNCc1ccc(S(N)(=O)=O)cc1", "SF-539", -1],
  ["COc1cccc(NC(=O)N/C(=C/c2ccc(N(CCC#N)CCC#N)cc2)NC(=O)c2cc([N+](=O)[O-])ccc2Cl)c1", "SF-539", -1]
]}

Challenge: For this compound, state the assay outcome: CC(Oc1ccc(Oc2cnc3ccc(Cl)cc3n2)cc1)C(=O)O (centres undefined)
Response given: -1

Challenge: For this compound, state the assay outcome: `CC(=O)[O-].Cc1ncc(CO)c(/C=N/NC(N)=S)c1[O-].[Zn+2]`
Response given: -1
